Origin of values: patent US20250034266A1

- assay.system: T1, human CCR8 (human, UniProt P51685 1-355)
- T1 construct: whole, on cells; also called hCCR8
- T1 sequence (P51685 whole entry): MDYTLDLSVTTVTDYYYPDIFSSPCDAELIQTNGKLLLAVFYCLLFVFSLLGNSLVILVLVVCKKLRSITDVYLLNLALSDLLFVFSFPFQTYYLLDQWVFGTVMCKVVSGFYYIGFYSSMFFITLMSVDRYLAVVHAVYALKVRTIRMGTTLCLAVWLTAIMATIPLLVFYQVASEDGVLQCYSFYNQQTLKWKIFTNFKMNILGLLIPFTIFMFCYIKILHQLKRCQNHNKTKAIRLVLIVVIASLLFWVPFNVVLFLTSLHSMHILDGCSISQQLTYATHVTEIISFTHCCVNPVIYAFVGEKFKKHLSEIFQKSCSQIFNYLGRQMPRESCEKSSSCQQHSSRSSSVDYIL
- test.details: FACS on HEK293-human CCR8 cells
readout: Max MFI (MFI)
Numbers only, in MFI.

// known answers, use as guide
| binder | Max MFI [MFI] |
| --- | --- |
| Hu149-5 (antibody, V domains shown, humanized IgG) VH: EVQLVESGGGLVQPGGSLKLSCAASGFTFNTYAMNWVRQASGKGLEWVGRIRSKSNFYATYYAASVKGRFTISRDDSKNTAYLQMNSLKTEDTAVYYCVRGRDYGSSYAMDYWGQGTLVTVSS VL: DIVMTQSPLSLPVTPGEPASISCRSSKSLLHSNANTYLYWYLQKPGQSPQLLIYRMSNLASGVPDRFSGSGSGTDFTLKISRVEAEDVGVYYCMQHLEYPLTFGGGTKVELK | 2470 |
| Hu149-1 (antibody, V domains shown, humanized IgG, detected with anti-human IgG) VH: EVQLVESGGGLVQPGGSLKLSCAASGFTFNTYAMNWVRQASGKGLEWVGRIRSKSNFYATYYAASVKGRFTISRDDSKNTAYLQMNSLKTEDTAVYYCVRGRDYGSSYAMDYWGQGTLVTVSS VL: DIVMTQSPLSLPVTPGEPASISCRSSKSLLHSNANTYLYWFLQKPGQSPQLLIYRMSNLASGVPDRFSGSGSGTDFTLKISRVEAEDVGVYYCMQHLEYPLTFGGGTKVELK | 7610 |
| Hu149-6 (antibody, V domains shown, humanized IgG) VH: EVQLVESGGGLVQPGGSLKLSCAASGFTFNTYAMHWVRQASGKGLEWVGRIRSKSNFYATYYAASVKGRFTISRDDSKNTAYLQMNSLKTEDTAVYYCVRGRDYGSSYAMDYWGQGTLVTVSS VL: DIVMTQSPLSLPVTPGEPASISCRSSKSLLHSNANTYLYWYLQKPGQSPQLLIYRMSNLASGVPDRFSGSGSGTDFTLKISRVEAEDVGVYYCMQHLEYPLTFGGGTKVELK | 138 |
| Hu149-7 (antibody, V domains shown, humanized IgG) VH: EVQLVESGGGLVQPGGSLKLSCAASGFTFNTYAMNWVRQASGKGLEWVGRIRSKSNFYATAYAASVKGRFTISRDDSKNTAYLQMNSLKTEDTAVYYCVRGRDYGSSYAMDYWGQGTLVTVSS VL: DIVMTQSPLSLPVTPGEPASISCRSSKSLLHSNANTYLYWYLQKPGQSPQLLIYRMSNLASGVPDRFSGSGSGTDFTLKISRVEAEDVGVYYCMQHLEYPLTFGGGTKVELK | 3110 |
| Hu149-2 (antibody, V domains shown, humanized IgG) VH: EVQLVESGGGLVQPGGSLKLSCAASGFTFNTYAMHWVRQASGKGLEWVGRIRSKSNFYATYYAASVKGRFTISRDDSKNTAYLQMNSLKTEDTAVYYCVRGRDYGSSYAMDYWGQGTLVTVSS VL: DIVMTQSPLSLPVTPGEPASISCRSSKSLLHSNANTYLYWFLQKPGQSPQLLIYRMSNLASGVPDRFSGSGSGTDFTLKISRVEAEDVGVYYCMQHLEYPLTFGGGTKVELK | 1120 |

Exercise: Endpoint output: Max MFI of Hu149-3 (antibody, V domains shown, humanized IgG) VH: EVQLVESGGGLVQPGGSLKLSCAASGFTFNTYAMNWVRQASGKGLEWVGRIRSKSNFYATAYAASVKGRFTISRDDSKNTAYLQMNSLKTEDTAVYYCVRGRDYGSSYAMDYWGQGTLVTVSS VL: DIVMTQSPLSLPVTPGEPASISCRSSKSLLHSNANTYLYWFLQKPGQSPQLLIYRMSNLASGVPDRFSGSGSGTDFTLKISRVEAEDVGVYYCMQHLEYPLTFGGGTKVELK . Value?
Solution: 7000
